Catalogue of TGI readings, one per entry.
- Tested on: CAKI-1 renal
- measurement protocol: NCI tumour cell line growth inhibition, 48 h
recorded endpoint: TGI

molecule=Cc1[nH]nc2c1N=C(c1ccccc1Cl)c1cc([N+](=O)[O-])ccc1N2 system_tested="CAKI-1 renal" recorded_endpoint=TGI result="> 22.2 µM"
molecule=O=C1CCCC2=C1CC1=C(CCCC1=O)N2c1ccccc1 system_tested="CAKI-1 renal" recorded_endpoint=TGI result="> 100 µM"
molecule="c1ccc(COC2(OCc3ccccc3)CC3OC2C2NN=NC32)cc1 (stereo unspecified)" system_tested="CAKI-1 renal" recorded_endpoint=TGI result="> 100 µM"
molecule=CC(=O)Oc1ccc(/C=C/C(=O)O[C@H]2CCCC[C@@H]2OC(=O)/C=C/c2ccc(OC(C)=O)c(OC(C)=O)c2)cc1OC(C)=O system_tested="CAKI-1 renal" recorded_endpoint=TGI result="> 100 µM"
molecule="CC(=O)NC(Cc1ccc(OP(=O)(OCc2ccc([N+](=O)[O-])o2)N(C)CCCCCl)cc1)C(=O)NC(C)c1ccc(OCC2CCCCC2)c(C(N)=O)c1 (stereo unspecified)" system_tested="CAKI-1 renal" recorded_endpoint=TGI result="> 100 µM"
molecule=COc1cc(Nc2nc3ccc(C(F)(F)F)cc3nc2-c2ccccc2)cc(OC)c1OC system_tested="CAKI-1 renal" recorded_endpoint=TGI result="79.4 µM"
molecule=CCN(CC)C(=O)N1CN(c2ccccc2)C2(CCN(CCCSc3ccc(F)cc3)CC2)C1=O system_tested="CAKI-1 renal" recorded_endpoint=TGI result="> 100 µM"
molecule=O=c1cc(N=Nc2ccc(Cl)cc2)[nH]c(=O)[nH]1 system_tested="CAKI-1 renal" recorded_endpoint=TGI result="4.12 µM"
molecule="CC(=O)OCC1OC(O/C=C(\\CN=[N+]=[N-])C(C)=O)C(OC(C)=O)C(OC(C)=O)C1OC(C)=O (stereo unspecified)" system_tested="CAKI-1 renal" recorded_endpoint=TGI result="10.1 µM"
molecule=COc1ccc2c(c1)/C(=C/c1cc(OC)c(OC)c(OC)c1)C(=O)N2C system_tested="CAKI-1 renal" recorded_endpoint=TGI result="> 27.4 µM"
molecule="CC1(C)CCC(=O)NC1CC(=O)CC1NC(=O)CCC1(C)C (stereo unspecified)" system_tested="CAKI-1 renal" recorded_endpoint=TGI result="> 100 µM"
molecule="O=c1c2ccccc2nc(-c2cccc(Cl)c2)n1NCC1(O)OCC(O)C(O)C1O (stereo unspecified)" system_tested="CAKI-1 renal" recorded_endpoint=TGI result="> 100 µM"
molecule=N#Cc1ccc2c(c1)C(=O)c1c-2n(CCCN)c(=O)c2cc([N+](=O)[O-])ccc12 system_tested="CAKI-1 renal" recorded_endpoint=TGI result="1.54 µM"
molecule=CCNCCCn1c2c(c3ccc([N+](=O)[O-])cc3c1=O)C(=O)c1cc(OC)cnc1-2 system_tested="CAKI-1 renal" recorded_endpoint=TGI result="2.3 µM"
molecule=COc1ccc(-c2csc(NC(=O)c3cc(O)c(O)c(O)c3)n2)cc1 system_tested="CAKI-1 renal" recorded_endpoint=TGI result="> 33.3 µM"
molecule=Cc1cc2cn3c4cccnc4[nH]c(=O)c3c2cc1C system_tested="CAKI-1 renal" recorded_endpoint=TGI result="2.92 µM"
molecule=O=[N+]([O-])c1c2nc3n(c2cc2c1nc1n2CCC1)CCC3 system_tested="CAKI-1 renal" recorded_endpoint=TGI result="> 100 µM"
molecule=O=C(c1ccc(Cl)cc1)c1ccc(OCCSCCCCCCCCCCSCCOc2ccc(C(=O)c3ccc(Cl)cc3)cc2)cc1 system_tested="CAKI-1 renal" recorded_endpoint=TGI result="> 100 µM"
molecule=O=C1ON=C2C3CC4CC12CC1(C3)C(=O)ON=C41 system_tested="CAKI-1 renal" recorded_endpoint=TGI result="> 100 µM"
molecule=O=C(COc1cccc(/C=C2\CSc3ccccc3C2=O)c1)c1ccc(Cl)cc1 system_tested="CAKI-1 renal" recorded_endpoint=TGI result="10.1 µM"
molecule=Cc1cccc(C)c1NC(=O)CCc1n[nH]c(=S)o1 system_tested="CAKI-1 renal" recorded_endpoint=TGI result="> 100 µM"
molecule=Clc1nc(Cl)c(CBr)c(Cl)n1 system_tested="CAKI-1 renal" recorded_endpoint=TGI result="23.3 µM"
molecule=Nc1ccc(Oc2ccc(C34CC5CC6C3CC3CC4C(C5)C6(c4ccc(Oc5ccc(N)c(O)c5)cc4)C3)cc2)cc1O system_tested="CAKI-1 renal" recorded_endpoint=TGI result="27.7 µM"
molecule=Oc1cccc(-c2cn3cc(C(F)(F)F)ccc3n2)c1 system_tested="CAKI-1 renal" recorded_endpoint=TGI result="> 100 µM"
molecule=S=C(Nc1ccccn1)Nc1ccccc1Cl system_tested="CAKI-1 renal" recorded_endpoint=TGI result="> 100 µM"
molecule="CC(=O)/C=C(\\O)c1[nH]c(C(=O)O)cc1C1CCN(Cc2ccccc2)C1=O (stereo unspecified)" system_tested="CAKI-1 renal" recorded_endpoint=TGI result="> 100 µM"
molecule=NS(=O)(=O)c1ccc(NC(=O)c2cccc3cc4ccccc4nc23)cc1 system_tested="CAKI-1 renal" recorded_endpoint=TGI result="> 100 µM"
molecule=CCOC(=O)Cn1c(=O)c2cc(-c3ccccc3)cc3c(Cl)nc4c(OC)c(OC)cc1c4c32 system_tested="CAKI-1 renal" recorded_endpoint=TGI result="> 100 µM"
molecule=CCOC(=O)c1cc(C(=O)c2cc(OC)c(OC)c(OC)c2)n2ccccc12 system_tested="CAKI-1 renal" recorded_endpoint=TGI result="> 100 µM"
molecule=CC(C)Nc1ncc2cc(Oc3ccc(F)cc3F)c(=O)n(C)c2n1 system_tested="CAKI-1 renal" recorded_endpoint=TGI result="> 25 µM"
molecule=CC(C)OC(=O)[C@@H](O)[C@H](CO)C1=CC([Si](C)(C)c2ccccc2)=CON1 system_tested="CAKI-1 renal" recorded_endpoint=TGI result="> 100 µM"
molecule="CC1CCc2sc3[nH]c(=S)n(-c4ccccc4)c(=O)c3c2C1 (stereo unspecified)" system_tested="CAKI-1 renal" recorded_endpoint=TGI result="> 100 µM"
molecule=Cc1ccc(S(=O)(=O)N2CCNCCN(S(=O)(=O)c3ccc(C)cc3)CCN(S(=O)(=O)c3ccc(C)cc3)CC2)cc1 system_tested="CAKI-1 renal" recorded_endpoint=TGI result="> 100 µM"
molecule=CCSc1nc(N)c2c(-c3ccccc3)c3c(nc2n1)CCC3 system_tested="CAKI-1 renal" recorded_endpoint=TGI result="> 100 µM"
molecule="NC(CC1=CCC=CC1)C(=O)O (stereo unspecified)" system_tested="CAKI-1 renal" recorded_endpoint=TGI result="> 100 µM"
molecule="CC(C)(C)c1ccc(C(C)(C)C)c(N2C(=O)C3ON=C(c4ccc([N+](=O)[O-])cc4)C3C2=O)c1 (stereo unspecified)" system_tested="CAKI-1 renal" recorded_endpoint=TGI result="> 25 µM"
molecule="N#CC1CC2(C(=O)C1=O)c1ccccc1-c1ccccc12 (stereo unspecified)" system_tested="CAKI-1 renal" recorded_endpoint=TGI result="> 100 µM"
molecule=O=C1c2ccccc2C(=O)c2c(O)ccc(O)c21 system_tested="CAKI-1 renal" recorded_endpoint=TGI result="> 100 µM"
molecule="NC1CCC(N[C@@H]2C[C@H]2c2ccccc2)CC1 (stereo partly specified)" system_tested="CAKI-1 renal" recorded_endpoint=TGI result="> 100 µM"
molecule=C#CCn1c(=O)c(Cl)cn(/C(=C/C(=O)OCC)C(=O)OCC)c1=O system_tested="CAKI-1 renal" recorded_endpoint=TGI result="7.37 µM"
molecule="CC(=O)OC1Oc2ccccc2-c2oc(=O)c(-c3cc4ccccc4oc3=O)cc21 (stereo unspecified)" system_tested="CAKI-1 renal" recorded_endpoint=TGI result="66.1 µM"
